Origin of measurements: ChEMBL document CHEMBL3044985

Assay: Cytotoxicity against Chlorocebus aethiops (African green monkey) Vero cells assessed as cell viability after 72 hr by MTT assay
Format: cell-based
Details: chlorocebus sabaeus
property_measured: CC50 at 72 h (µM)

- C/C(=N/NC(=S)N(Cc1ccccc1)Cc1ccccc1)c1ccccc1: 167
- C=CCN(CC=C)C(=S)N/N=C(/C)c1ccc(O)cc1: 216
- O=[N+]([O-])c1ccc(/C=N\NC(=S)N(Cc2ccccc2)Cc2ccccc2)o1: 158
- C=CCN(CC=C)C(=S)N/N=C\c1ccccc1[N+](=O)[O-]: 205
- C=CCN(CC=C)C(=S)N/N=C(/C)c1ccccc1O: 216
- C/C(=N/NC(=S)N(Cc1ccccc1)Cc1ccccc1)c1ccc(O)cc1: 160
- C/C(=N/NC(=S)N(Cc1ccccc1)Cc1ccccc1)c1ccc(F)cc1: 160
- C=CCN(CC=C)C(=S)N/N=C\c1ccc(Cl)cc1: 213
- S=C(N/N=C\c1ccc(Cl)cc1)N(Cc1ccccc1)Cc1ccccc1: 159
- S=C(N/N=C\c1ccccc1)N(Cc1ccccc1)Cc1ccccc1: 174
- C/C(=N/NC(=S)N(Cc1ccccc1)Cc1ccccc1)c1ccccc1O: 160
- Oc1ccccc1/C=N\NC(=S)N(Cc1ccccc1)Cc1ccccc1: 166

====

Assay: Cytotoxicity against Chlorocebus aethiops (African green monkey) Vero cells assessed as cell viability after 72 hr by MTT assay
Assay type: cell-based
Conditions: chlorocebus sabaeus
Listing: CC50 at 72 h of selected molecules
property_measured: CC50 at 72 h

• CC[C@@H](CO)NCCN[C@@H](CC)CO = > 188 µM
• CC1COc2c(N3CCN(C)CC3)c(F)cc3c(=O)c(C(=O)O)cn1c23 (stereo not drawn) = > 155 µM
• C=CCN(CC=C)C(=S)N/N=C\c1ccc([N+](=O)[O-])o1 = < 212 µM
• O=[N+]([O-])c1ccc(/C=N\NC(=S)N(Cc2ccccc2)Cc2ccccc2)cc1 = < 155 µM
• CO[C@H]1/C=C/O[C@@]2(C)Oc3c(C)c(O)c4c(O)c(c(/C=N/N5CCN(C)CC5)c(O)c4c3C2=O)NC(=O)/C(C)=C\C=C\[C@H](C)[C@H](O)[C@@H](C)[C@@H](O)[C@@H](C)[C@H](OC(C)=O)[C@@H]1C = > 75.9 µM
• C=CCN(CC=C)C(=S)N/N=C(/C)c1ccc([N+](=O)[O-])cc1 = < 196 µM
• C=CCN(CC=C)C(=S)N/N=C\c1ccccc1C = > 229 µM
• C=CCN(CC=C)C(=S)N/N=C\c1ccc([N+](=O)[O-])cc1 = < 205 µM
